target: MAP4K2 (human) (UniProt Q12851); assay: radiometric filter-binding kinase assay, Kinase HotSpot; conditions: compound 0.5 µM; ATP 10 µM
Sequence (Q12851 whole entry, looked up): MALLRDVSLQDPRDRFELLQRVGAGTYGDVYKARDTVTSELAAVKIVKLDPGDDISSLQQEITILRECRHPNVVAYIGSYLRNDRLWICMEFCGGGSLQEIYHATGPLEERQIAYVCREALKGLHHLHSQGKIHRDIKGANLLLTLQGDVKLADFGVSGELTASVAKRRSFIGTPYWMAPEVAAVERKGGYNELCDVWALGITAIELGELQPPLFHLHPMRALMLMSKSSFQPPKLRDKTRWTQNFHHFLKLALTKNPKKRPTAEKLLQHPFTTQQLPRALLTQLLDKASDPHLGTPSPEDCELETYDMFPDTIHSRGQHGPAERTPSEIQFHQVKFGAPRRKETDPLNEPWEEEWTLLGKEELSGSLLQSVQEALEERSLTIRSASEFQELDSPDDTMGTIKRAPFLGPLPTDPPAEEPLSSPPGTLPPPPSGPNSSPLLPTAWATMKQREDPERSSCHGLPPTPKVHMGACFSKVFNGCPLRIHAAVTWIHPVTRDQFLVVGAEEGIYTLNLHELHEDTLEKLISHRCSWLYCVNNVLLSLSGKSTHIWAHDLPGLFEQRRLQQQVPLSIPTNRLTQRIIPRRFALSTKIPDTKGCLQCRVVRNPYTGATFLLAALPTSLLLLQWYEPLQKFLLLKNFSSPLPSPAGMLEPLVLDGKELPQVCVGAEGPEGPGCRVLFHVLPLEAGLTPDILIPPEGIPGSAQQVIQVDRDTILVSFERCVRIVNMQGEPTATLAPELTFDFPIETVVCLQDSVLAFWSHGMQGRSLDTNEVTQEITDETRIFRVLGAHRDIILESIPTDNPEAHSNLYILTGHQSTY
Measured endpoint: residual activity (%)

> print(dat)
                               record.smiles  scale.unit  value
 1  COc1ccc2c(c1)c(C1=C(c3c[nH]c4ccccc34)C(=O)NC1=O)cn2CCCN(C)C           %   56.3
 2  C[C@@H]1CCN(C(=O)CC#N)C[C@@H]1N(C)c1ncnc2[nH]ccc12           %    102
 3  CN(C)S(=O)(=O)c1ccc2c(c1)/C(=C/c1cc3c([nH]1)CCCC3)C(=O)N2           %   20.8
 4  COc1cc(Nc2c(C#N)cnc3cc(OCCCN4CCN(C)CC4)c(OC)cc23)c(Cl)cc1Cl           %   3.16
 5        CC(C)(C)c1cc(C=C(C#N)C#N)cc(Br)c1O           %    113
 6  O=C1C(Cl)=C(N2C(=O)CCC2=O)C(=O)c2ccccc21           %   89.6
 7           Ic1cccc(CSc2nnc(-c3ccncc3)o2)c1           %    112
 8  COc1ccc(S(=O)(=O)N(CCO)c2ccccc2CN(C)C/C=C/c2ccc(Cl)cc2)cc1           %   92.6
 9      CN(C)c1ccc(/C=C2\C(=O)Nc3ccccc32)cc1           %    109
10   N#C/C(=C\c1ccc(O)c(O)c1)C(=O)NCc1ccccc1           %    103
11  COc1cc2ncnc(Nc3ccc(Oc4ccccc4)cc3)c2cc1OC           %    104
12  Cc1cccc(-c2nc(C(C)(C)C)[nH]c2-c2ccc3c(c2)OCO3)n1           %    102
13  CN(C)CCCn1cc(C2=C(c3c[nH]c4ccccc34)C(=O)NC2=O)c2ccccc21           %   94.2
14  COc1ccc(C(=O)Nc2sc3c(c2C(N)=O)CCCC3)cc1OC           %    106
15  O=C(c1cc2cc(O)ccc2[nH]1)c1cc2cc(O)ccc2[nH]1           %   67.1
16    O=C1NC(=O)c2c1c1c3ccccc3[nH]c1n1cncc21           %   51.8
17  CS(=O)(=O)CCNCc1ccc(-c2ccc3ncnc(Nc4ccc(OCc5cccc(F)c5)c(Cl)c4)c3c2)o1           %    104
18  O=C1Nc2ccc(Br)cc2/C1=C\c1cc2c([nH]1)CCCC2           %   58.1
19  Cn1c2ccccc2c2c3c(c4c5ccccc5n(CCC#N)c4c21)CNC3=O           %   5.68
20  COc1cc2ncnc(Nc3ccc(OCc4ccccc4)cc3)c2cc1OC           %    114
21       Fc1ccc(-c2nc3n(c2-c2ccncc2)CCS3)cc1           %    109
22    COc1ccc(Cl)cc1NC(=O)Nc1cc(C)nc2ccccc12           %    114
23  CO[C@@H]1[C@H](N(C)C(=O)c2ccccc2)C[C@H]2O[C@]1(C)n1c3ccccc3c3c4c(c5c6ccccc6n2c5c31)C(=O)NC4           %   5.17
24     COc1ccc2c(c1)/C(=C/c1cnc[nH]1)C(O)=N2           %   42.6
25               c1ccc2c(-c3ccncc3)c[nH]c2c1           %    101
26  Cc1cncc2cccc(S(=O)(=O)N3CCCN(C(=O)CN)C[C@H]3C)c12           %    106
27  NC(=O)c1cccc(-c2cc(Nc3ccc(OC(F)(F)F)cc3)ncn2)c1           %    132
28  N#Cc1c[nH]c2c[nH]/c(=N\Cc3cccnc3)cc2/c1=N\c1ccc(F)c(Cl)c1           %   72.2
29            Cc1nc(-c2ccccc2)c(-c2ccncc2)o1           %    106
30       CCCCc1c(-c2ccc(OC)cc2)[nH]c2nccnc12           %   65.1
31               O=C1c2ccccc2-c2nc3nnnn3nc21           %   79.4
